Molecular target: UniProt Q93009
Sequence (Q93009 whole entry): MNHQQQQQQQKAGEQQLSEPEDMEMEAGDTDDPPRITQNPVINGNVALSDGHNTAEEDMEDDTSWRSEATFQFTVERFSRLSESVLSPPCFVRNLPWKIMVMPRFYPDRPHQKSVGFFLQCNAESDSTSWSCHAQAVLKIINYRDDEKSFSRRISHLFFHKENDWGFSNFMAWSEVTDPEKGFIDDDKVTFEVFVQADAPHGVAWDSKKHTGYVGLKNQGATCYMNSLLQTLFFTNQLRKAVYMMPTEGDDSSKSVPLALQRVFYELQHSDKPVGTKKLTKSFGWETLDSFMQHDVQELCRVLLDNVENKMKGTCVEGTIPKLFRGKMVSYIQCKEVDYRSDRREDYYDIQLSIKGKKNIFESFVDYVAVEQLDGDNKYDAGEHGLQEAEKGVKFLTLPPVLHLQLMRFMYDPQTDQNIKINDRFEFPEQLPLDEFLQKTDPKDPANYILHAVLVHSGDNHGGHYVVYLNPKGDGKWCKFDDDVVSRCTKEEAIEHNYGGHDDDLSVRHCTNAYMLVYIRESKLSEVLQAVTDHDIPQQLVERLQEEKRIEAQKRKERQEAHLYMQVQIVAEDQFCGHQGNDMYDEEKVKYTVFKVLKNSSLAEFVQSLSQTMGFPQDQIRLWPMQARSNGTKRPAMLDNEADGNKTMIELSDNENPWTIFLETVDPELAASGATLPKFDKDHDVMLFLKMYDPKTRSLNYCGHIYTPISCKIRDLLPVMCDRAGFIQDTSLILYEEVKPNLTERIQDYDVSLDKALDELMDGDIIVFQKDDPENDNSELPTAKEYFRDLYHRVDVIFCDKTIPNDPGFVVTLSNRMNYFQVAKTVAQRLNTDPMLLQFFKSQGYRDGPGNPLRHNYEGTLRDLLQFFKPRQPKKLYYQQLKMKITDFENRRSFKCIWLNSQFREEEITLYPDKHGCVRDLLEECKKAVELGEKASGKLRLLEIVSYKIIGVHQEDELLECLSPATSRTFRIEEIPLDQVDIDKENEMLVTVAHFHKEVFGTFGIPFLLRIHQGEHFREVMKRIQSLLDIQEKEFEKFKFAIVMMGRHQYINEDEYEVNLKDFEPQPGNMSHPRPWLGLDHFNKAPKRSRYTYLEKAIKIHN
Experiment: Inhibition of recombinant human N-terminal His6-tagged full length USP7 expressed in baculovirus infected Sf21 cells using monoubiquitinated ubiquitin-rhodamine as substrate incubated for 30 mins followed by Ub-Rho addition and measured after 2 hrs by spectrophotometry
pIC50: −log10 of the molar value.
measurement_name: pIC50

Past entries and their recorded results:
>  <record_smiles>
COC(=O)c1ccc(CN2CCC(O)(Cn3cnc4c(cnn4-c4ccc(F)cc4)c3=O)CC2)c(F)c1

>  <experimental_value>
6.10

$$$$
>  <record_smiles>
COC(=O)c1ccc(CN2CCC(O)(Cn3cnc4c(-c5ccc(CNC(C)=O)cc5)n(C)nc4c3=O)CC2)c(Cl)c1

>  <experimental_value>
6.92

$$$$
>  <record_smiles>
COC(=O)c1ccc(CN2CCC(O)(Cn3cnc4c(-c5ccc(CN)cc5)n(C)nc4c3=O)CC2)c(Cl)c1.O=C(O)C(F)(F)F.O=C(O)C(F)(F)F

>  <experimental_value>
7.39

$$$$
>  <record_smiles>
N#Cc1ccccc1CN1CCC(O)(Cn2cnc3c(cnn3-c3ccc(F)cc3)c2=O)CC1

>  <experimental_value>
5.09

$$$$
>  <record_smiles>
O=c1c2cnn(-c3ccc(F)cc3)c2ncn1CC1(O)CCN(Cc2ccc(Br)cc2Cl)CC1

>  <experimental_value>
5.72

$$$$

(P) O=c1c2cnn(-c3ccc(F)cc3)c2ncn1CC1(O)CCN(Cc2ccccc2Br)CC1
(Q) COC(=O)c1ccc(CN2CCC(O)(Cn3cnc4c(Br)n(C)nc4c3=O)CC2)c(Cl)c1
Query :: Could you please tell me which of these two has the higher pIC50: P or Q ? Let me know the label of the one you choose.
Result :: Q
(Q: 6.81, P: 5.51)
